The values you see were collected from ChEMBL document CHEMBL4043189.

- assay summary: Inhibition of recombinant Mycobacterium tuberculosis glutamine-dependent NadE using NAAD as substrate assessed as residual activity preincubated for 20 mins followed L-glutamine addition measured over 40 mins by spectrophotometric based PNP enzyme coupled assay
# IC50 per entry
Form entry: value (µM) — number only.

Consider the worked cases shown below.
{"item smiles": "O=C(Nc1ccc([N+](=O)[O-])cc1)Nc1ccc(S(=O)(=O)Nc2cccc(C(F)(F)F)c2)cc1", "experimental value": 130}
{"item smiles": "O=C(Nc1ccc([N+](=O)[O-])cc1)Nc1ccc(S(=O)(=O)Nc2ccccc2)cc1", "experimental value": 125}
{"item smiles": "O=C(Nc1ccc([N+](=O)[O-])cc1)Nc1ccc(S(=O)(=O)Nc2ccc(O)cc2)cc1", "experimental value": 160}

Now examine the next entry.
Q: Specify reported IC50 for the compound shown: O=C(Nc1ccc([N+](=O)[O-])cc1)Nc1ccc(S(=O)(=O)Nc2ccc([N+](=O)[O-])cc2)cc1
Result: 90
